- System: Plasmodium falciparum
- Assay Method Text: Screen against P. falciparum Asexual Blood Stage (ABS), at 5uM
- Format: functional, Dd2
- Measurement Conditions: tested at 5 uM
Out of some 65,000 compounds screened, about 2,100 (3.2%) showed an effect of 50% or more. The median lay at about -52%. The entries come from a sample that favours strong results as a whole.
Response key: yes (1) means INHIBITION >= -20%; no (0) means INHIBITION < -20%.

1) Cc1ccc2c(c1)CCC21CCN(CCO)CC1; yes (1)
2) Cc1noc([C@@H]2C[C@H]3OCC[C@H]3N(C(C)C)C2)n1; no (0)
3) Cc1nc(CN2CCC23CCN(C(=O)c2ccncc2)CC3)cs1; yes (1)
4) COc1cc(C2SCC(=O)Nc3ccsc32)cc(OC)c1OC (stereo unspecified); yes (1)
5) Cc1nnc([C@H]2CC[C@@H]3[C@@H](CCN3Cc3c(C)noc3C)O2)o1; yes (1)
6) Cc1ccc2c(c1)C1(CCNCC1)CC2NCCO (stereo unspecified); no (0)
7) Cc1ccc(O[C@@H]2C[C@H]3CN(c4ncc(F)cn4)CCN3C2)cc1; no (0)
8) c1ccc2sc(N3CCCN(c4ncnc5c4CCNC5)CC3)nc2c1; yes (1)
9) O=C(c1cccnc1)N1CCN2C[C@H](Oc3cncnc3)C[C@H]2C1; no (0)
10) COCCN1CCC2(CC1)CC(NCc1ccc(C)s1)c1ccccc12 (stereo unspecified); yes (1)
11) Cc1cccc(CN2C[C@@H]3OCCN(C)[C@@H]3C2)n1; yes (1)

----------
Each record here notes measured INHIBITION.
- Test system: Plasmodium falciparum
- Assay Method Text: Screen against P. falciparum Asexual Blood Stage (ABS), at 5uM
- Type: functional, Dd2
- Measurement Conditions: tested at 5 uM
Screen size: about 65,000 compounds; about 2,100 (3.2%) showed an effect of 50% or more. The median lay at about -52%. The entries come from a sample that favours strong results as a whole.
Property Label: INHIBITION (%)

1. Cn1ncc2c1NC(=O)CSC2c1ccccc1Cl (configuration not stated); -82.5
2. O=C(C1CC1)N1CCC2(CC1)CNCCO2; -34.5
3. CS(=O)(=O)CCCNC1(c2ccc(Br)cc2)CCC1; 78.5
4. Cc1cccc(CN2CC3C[C@]3(NC(=O)c3ccoc3)C2)n1 (some centres not stated); -67.9
5. Fc1cnccc1CN1CCC2(CCN2c2ncccn2)C1 (configuration not stated); -10.7
6. CN1CCn2c(-c3cccc(F)c3)cnc2C12CCN(CC1CC1)CC2; 76.5
7. NCC1(c2cccc(C(F)(F)F)c2)CCCCC1; 2.74
8. c1ccc(-c2ncc3c(n2)C2(CCN(CC4CC4)C2)COC3)cc1 (configuration not stated); 32
9. Cc1cc(CNC2(c3ccccc3)CCCCC2)no1; 44.9
10. O=C(Cc1ccccc1F)N1CCN(Cc2noc(C3CC3)n2)CC1; -69
11. Fc1cccc(CN2CCC(c3cc4ncccc4cn3)CC2)c1F; 89.4
12. COc1ccc(C)cc1CN1CCC(c2cc3ncccc3cn2)CC1; 78.2

----------
- Test system: Plasmodium falciparum
- Assay Method Text: Screen against P. falciparum Asexual Blood Stage (ABS), at 5uM
- Format: functional, Dd2
- Measurement Conditions: tested at 5 uM
The whole screen tested about 65,000 compounds, of which about 2,100 (3.2%) showed an effect of 50% or more. The median lay at about -52%. This excerpt belongs to a sample that is enriched for strong results.
Each record here notes measured INHIBITION.
Property Label: INHIBITION (%)

1) Cc1n[nH]c2c1C(c1ccc(F)cc1)SCC(=O)N2 (stereo unspecified); -4.37
2) O=C(Cc1csc(-c2ccco2)n1)N1CCN(CCO)CC1; -30.8
3) CS(=O)(=O)N1CCN(CC2CC2)c2ncccc2C1; -25.9
4) O=C1CO[C@H]2CN(C3CCOCC3)C[C@H]2N1Cc1ccccn1; -104
5) COc1c(CNCCc2c[nH]c3cc(F)ccc23)c(C)nn1C; 50
6) COc1ccccc1CC(=O)N1CCN(Cc2ccco2)C[C@@H]1C; -101
7) Cc1cnn(CC(C)NCCc2cccs2)c1 (stereo unspecified); -30.1
8) COc1ccc(CCNCc2c(C)nn(C)c2N(C)C)cc1OC; 21.4
9) CN1CCN([C@@H]2CN(C(=O)Cc3ccsc3)[C@@H]3CCCO[C@H]23)CC1; -66.9
10) CN1CCN(C(=O)c2cn(Cc3ccccc3)c3ncccc23)CC1; -70.4
11) COc1c(CNCCc2c[nH]c3ccccc23)c(C)nn1C; -60.7
